System: TO-N3-2 (biotin conjugate)
Test: pull-down binding Z-score (relative to library population); higher = stronger binding
Settings: RNA library: Library-2
Would you mind classing the entries by pull-down binding Z-score? Ranges: category 1: < -0.2; category 2: ≥ -0.2 and < 0.4; category 3: ≥ 0.4

Task item: For this sequence, which bin applies? `CUGACUUAACAAAGCCUUACAUUAAGUGGGAUUUGUUAAAAUAUGACUUCACGGAAGAGAGGUUAAAACUCUUUGACCGUUAUUUUAAAUAUUGG`
Reply: category 2

Task item: For this sequence, which bin applies? `AAGGAUGCUACUCCUU`
Reply: category 1

Task item: For this sequence, which bin applies? `GCUUGUCACACCGUUUCUAUAGAUUAGCUAAUGAGUGUGCUCAAGU`
Reply: category 3

Task item: For this sequence, which bin applies? UCCUGUAGUGUCUUAUAUACAAUACAGUAGGA [hsa-mir-613]
Reply: category 1

Task item: For this sequence, which bin applies? UCUCGUUCACUGGGGA [IAV_invivo_PA_3_Motif_5+IAV_invivo_PA_3_Motif_5]
Reply: category 1

Task item: For this sequence, which bin applies? GCUUUUCACCUGUGAUCCCAGGAGAGGAAGC [hsa-mir-646]
Reply: category 3

Task item: For this sequence, which bin applies? GGGUCGGUUGCUCACAAGUCCUGCCUGCCUGCCU [IAV_invivo_NP_5_Motif_15+IAV_invivo_NP_5_Motif_15]
Reply: category 3

Task item: For this sequence, which bin applies? GGGGCUGGUUGUCUA [hsa-mir-6080]
Reply: category 3

Task item: For this sequence, which bin applies? GAUUAUGUGUACCUUCCUUACCCAGAUCCAUCAAGAAUCCUAGGGGCCGGCUGUUUUGUAGAUGAUAUCGUAAAAACAGAUGGUACACUUAUGAUU [SHAPE_invitro_SARS-CoV-2_Multi_44_ComplexLevel_1]
Reply: category 2

Task item: For this sequence, which bin applies? AGCACUUUGUGUUUUGUGAAAGAAAGUGCU [hsa-mir-516b-2]
Reply: category 1

Task item: For this sequence, which bin applies? CUCGGGUGGAUAAGUCUGAUCUGAG [hsa-mir-3663]
Reply: category 2

Task item: For this sequence, which bin applies? GCAGUCUGCUUUGUGCCAACACUGGGGUGAUGACUGC [hsa-mir-3157]
Reply: category 2

Task item: For this sequence, which bin applies? CAGUGGUGCCAUCUCCCCUG [hsa-mir-5008]
Reply: category 3

Task item: For this sequence, which bin applies? UGUACAUCUUCUUUGCAUCAUUUUAUUAUGUAUGGAAAAGUUAUGUGCA [SHAPE_invitro_SARS-CoV-2_Motif_147]
Reply: category 1

Task item: For this sequence, which bin applies? GGAGUUCAAAUUGCUUCC [IAV_invivo_NP_5_Motif_19+IAV_invivo_NP_5_Motif_19]
Reply: category 1

Task item: For this sequence, which bin applies? GGCUCGUCUGUGUUGCCAAUCGACUC [hsa-mir-1307]
Reply: category 3

Task item: For this sequence, which bin applies? CUGGGGGAAGGCUCCAGACCCCAGCCU [hsa-mir-4267]
Reply: category 3

Task item: For this sequence, which bin applies? CAUAUGUGUAACAGACAUACAUACAUACAUAUG [hsa-mir-3688-2]
Reply: category 1

Task item: For this sequence, which bin applies? CUGUGCAGAACAUCCGCUCACCUGUACAG [hsa-mir-214]
Reply: category 2

Ref: the supplement of paper PMC11865577
